Quick reference: Binding Signal (fold over 6E7 Parental antibody) of the listed items.
Molecular target: T1, human TREM2 (human, UniProt Q9NZC2 19-174, limits assumed)
T1 construct: also called triggering receptor expressed on myeloid cells 2
T1 sequence: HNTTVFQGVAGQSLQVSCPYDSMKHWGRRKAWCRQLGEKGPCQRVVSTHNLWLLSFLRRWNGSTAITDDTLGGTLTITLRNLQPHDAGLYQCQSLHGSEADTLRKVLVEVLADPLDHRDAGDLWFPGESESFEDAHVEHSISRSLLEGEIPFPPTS
Assay: 2nd screen 2 nM
Supply the numeric figure in fold, leaving out any unit text.

binder: V84 (antibody, V domains shown) VH: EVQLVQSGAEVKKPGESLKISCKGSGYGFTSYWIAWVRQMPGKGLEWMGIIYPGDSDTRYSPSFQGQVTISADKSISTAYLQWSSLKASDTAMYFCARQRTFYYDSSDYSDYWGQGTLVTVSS VL: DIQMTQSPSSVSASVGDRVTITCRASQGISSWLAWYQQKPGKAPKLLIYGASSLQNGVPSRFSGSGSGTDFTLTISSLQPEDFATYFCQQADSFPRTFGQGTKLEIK
reported_result: 1.45

Tell me Binding Signal (fold over 6E7 Parental antibody) reported for V77 (antibody, V domains shown) VH: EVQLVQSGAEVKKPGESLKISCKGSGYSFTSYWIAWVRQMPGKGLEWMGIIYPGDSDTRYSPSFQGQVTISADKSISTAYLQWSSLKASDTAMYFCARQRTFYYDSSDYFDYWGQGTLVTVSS VL: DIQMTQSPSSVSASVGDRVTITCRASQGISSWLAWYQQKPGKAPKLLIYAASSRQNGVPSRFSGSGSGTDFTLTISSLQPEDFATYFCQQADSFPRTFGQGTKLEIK 0.83

Provenance of the data: patent US20250282866A1
